Kindly supply the reported log10 of IC50 values for the records listed here.
target-or-system: JAK3 (JH1 and JH2 domain) (Homo sapiens)
Sequence (P52333 521-1111 limits assumed): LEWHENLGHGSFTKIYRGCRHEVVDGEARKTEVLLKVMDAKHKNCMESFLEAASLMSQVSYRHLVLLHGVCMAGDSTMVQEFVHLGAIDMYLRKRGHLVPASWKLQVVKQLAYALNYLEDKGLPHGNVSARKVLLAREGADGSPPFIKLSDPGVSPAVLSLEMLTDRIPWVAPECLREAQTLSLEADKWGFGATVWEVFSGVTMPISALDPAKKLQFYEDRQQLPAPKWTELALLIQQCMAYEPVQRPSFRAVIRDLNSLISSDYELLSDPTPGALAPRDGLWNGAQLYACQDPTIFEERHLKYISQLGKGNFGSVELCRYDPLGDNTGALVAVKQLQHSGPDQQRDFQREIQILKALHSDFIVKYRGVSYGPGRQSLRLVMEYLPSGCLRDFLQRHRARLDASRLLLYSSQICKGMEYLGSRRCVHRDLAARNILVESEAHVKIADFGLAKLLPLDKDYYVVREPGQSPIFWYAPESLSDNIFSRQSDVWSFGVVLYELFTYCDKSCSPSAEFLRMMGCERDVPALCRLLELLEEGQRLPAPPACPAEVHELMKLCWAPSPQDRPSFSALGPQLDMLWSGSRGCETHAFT
measurement-description: JAK3 Kinase Assay (ELISA of peptide substrate phosphorylation)
measurement-context: purified JAK3 enzyme, 10 μM ATP, biotinylated peptide substrate, 1 hour at room temperature
Units before log transform: nM; reported quantity: IC50; transform: log10.

Notebook: COC[C@H](C)NC(=O)OC1CCn2c3ccccc3c3c4c(c5c6ccccc6n(c5c32)CC1)C(=O)NC4 (stereo partly shown) , log10 of IC50 read as 3.22

Reported log10 of IC50 for COCCNC(=O)OCC1(O)Cn2c3ccccc3c3c4c(c5c6ccccc6n(c5c32)C1)C(=O)NC4 (stereo not shown) was 2.09

What the record says about CC(C)OCc1ccc2c(c1)c1c3c(c4c5cc(Br)ccc5n5c4c1n2CC(CO)C5)C(=O)NC3 (stereo not shown) : log10 of IC50 is 1.85

Entry CC(C)(C)OC(=O)CNC(=O)OC1CCn2c3ccccc3c3c4c(c5c6ccccc6n(c5c32)C1)C(=O)NC4=O (stereo not shown) , log10 of IC50 reported as 0.60

The recorded log10 of IC50 for entry O=C1NCc2c1c1c3cc(O)ccc3n3c1c1c2c2ccccc2n1CC(O)C(O)C3 (stereo not shown) equals 0.48

Value of measured log10 of IC50 for the entry O=C(NCC1CCCCC1)OC1Cn2c3ccccc3c3c4c(c5c6ccccc6n(c5c32)CC1O)C(=O)NC4=O (stereo not shown) : 2.64

# compound O=C1NCc2c1c1c3ccccc3n3c1c1c2c2ccccc2n1CCC(OC(=O)N1CCN(c2ccc(O)cc2)CC1)CC3 (stereo not shown) ; its log10 of IC50 = 3.87
